The measured values listed here are drawn from patent US6750224B1.

Assay read-out MIC; system under study: Viridans group Streptococci.
Give bare numbers, in µg/mL.

Here are 3 compounds together with their reported answers.
>>> quantitative_readout("C[C@H]1CCc2c(N3CCC(O)CC3)c(F)cc3c(=O)c(C(=O)O)cn1c23 [S-(−)-Nadifloxacin]")
0.2
>>> quantitative_readout("C/C(=C\\C(=O)OCCCCCCCCC(=O)O)C[C@@H]1OC[C@H](C[C@@H]2O[C@H]2[C@@H](C)[C@H](C)O)[C@@H](O)[C@H]1O [Mupirocin]")
0.2
>>> quantitative_readout("CC1CCc2c(N3CCC(O)CC3)c(F)cc3c(=O)c(C(=O)O)cn1c23 (racemic) [RS-(±)-Nadifloxacin]")
0.4

So for C[C@H]1COc2c(N3CCN(C)CC3)c(F)cc3c(=O)c(C(=O)O)cn1c23 [Levofloxacin] , the logged MIC turned out to be 1.56
